MEASURED_TARGET: hemagglutinin (HA) of influenza A/Vietnam/1194/04 (H5N1) (influenza A virus A/Vietnam/1194/04 (H5N1))
ASSAY_PROTOCOL: cell-based or functional assay
So I've got a bunch of binders here, and I need their VNA IC50 values.
I only need the number, in nM, no unit after it.

// recorded VNA IC50 for SD3119 (VHH) VHH: QVQLVESGGGVVQPGGSLRLSCAASISIFDIYAMDWYRQAPGKQRELVAVSFRDGSTYYADSVKGRFTISRDNSKNTLYLQMNSLRAEDTAVYYCHVSLYRDPLGVAGGIGVYWGQGTLVTVSS : 6

// recorded VNA IC50 for SD3015 (VHH) VHH: EVQLVESGGGVVQPGGSLRLSCAASISIFDIYAMDWYRQAPGKQRELVSVSFRDGSTYYADSVKGRFTISRDNSKNTLYLQMNSLRAEDTAVYLCHVSLYRDPLGVAGGMGVYWGKGALVTVSS : 6

// recorded VNA IC50 for SD3017 (VHH) VHH: EVQLVESGGGVVQPGGSLRLSCAASISIFDIYAMHWYRQAPGKQRELVATSFRDGSTYYADSVKGRFTISRDNSKNTLYLQMNSLRAEDTAVYLCHVSLYRDPLGVAGGMGVYWGKGALVTVSS : 11
